Tested on: C. neoformans
Conditions: 72 h
Non-standard residues stand in square brackets, D forms with d. Residues, ends and D or L forms follow the SMILES beside them. Ava = NCCCCC(=O)O
propertyLabel: MIC C. neoformans (µg/mL)

>>> recordedmeasurement("N=C(N)NCCC[C@@H](N)C(=O)N[C@@H](CCCNC(=N)N)C(=O)NCCCCC(=O)N[C@H](CCCNC(=N)N)C(=O)N[C@@H](CCCNC(=N)N)C(=O)N[C@H](CCCNC(=N)N)C(=O)NCCCCC(=O)N[C@H](CCCNC(=N)N)C(=O)N[C@@H](CCCNC(=N)N)C(=O)NCCCCC(=O)N[C@H](CCCNC(=N)N)C(=O)N[C@@H](CCCNC(=N)N)C(=O)N[C@H](CCCNC(=N)N)C(N)=O [SEQ ID NO: 25, rR-(Ava)-rRr-(Ava)-rR-(Ava)-rRr-NH2] (H-[dR]R[Ava][dR]R[dR][Ava][dR]R[Ava][dR]R[dR]-NH2)")
32
>>> recordedmeasurement("N=C(N)NCCC[C@@H](N)C(=O)N[C@@H](CCCNC(=N)N)C(=O)NCCCCC(=O)N[C@H](CCCNC(=N)N)C(=O)N[C@@H](CCCNC(=N)N)C(=O)N[C@H](CCCNC(=N)N)C(=O)NCCCCC(=O)N[C@H](CCCNC(=N)N)C(=O)N[C@@H](CCCNC(=N)N)C(=O)N[C@H](CCCNC(=N)N)C(=O)NCCCCC(=O)N[C@H](CCCNC(=N)N)C(=O)N[C@@H](CCCNC(=N)N)C(N)=O [SEQ ID NO: 23, rR-(Ava)-rRr-(Ava)-rRr-(Ava)-rR-NH2] (H-[dR]R[Ava][dR]R[dR][Ava][dR]R[dR][Ava][dR]R-NH2)")
8
>>> recordedmeasurement("N=C(N)NCCC[C@@H](N)C(=O)N[C@@H](CCCNC(=N)N)C(=O)N1CCC[C@H]1C(=O)N[C@H](CCCNC(=N)N)C(=O)N[C@@H](CCCNC(=N)N)C(=O)N1CCC[C@H]1C(=O)N[C@H](CCCNC(=N)N)C(=O)N[C@@H](CCCNC(=N)N)C(=O)N[C@H](CCCNC(=N)N)C(=O)N1CCC[C@H]1C(=O)N[C@H](CCCNC(=N)N)C(=O)N[C@@H](CCCNC(=N)N)C(=O)N[C@H](CCCNC(=N)N)C(N)=O [SEQ ID NO: 73, rR-P-rR-P-rRr-P-rRr-NH2] (H-[dR]RP[dR]RP[dR]R[dR]P[dR]R[dR]-NH2)")
8
